# Target or test system: DNA gyrase subunit A (Escherichia coli K-12)
# Sequence (P0AES4 whole entry): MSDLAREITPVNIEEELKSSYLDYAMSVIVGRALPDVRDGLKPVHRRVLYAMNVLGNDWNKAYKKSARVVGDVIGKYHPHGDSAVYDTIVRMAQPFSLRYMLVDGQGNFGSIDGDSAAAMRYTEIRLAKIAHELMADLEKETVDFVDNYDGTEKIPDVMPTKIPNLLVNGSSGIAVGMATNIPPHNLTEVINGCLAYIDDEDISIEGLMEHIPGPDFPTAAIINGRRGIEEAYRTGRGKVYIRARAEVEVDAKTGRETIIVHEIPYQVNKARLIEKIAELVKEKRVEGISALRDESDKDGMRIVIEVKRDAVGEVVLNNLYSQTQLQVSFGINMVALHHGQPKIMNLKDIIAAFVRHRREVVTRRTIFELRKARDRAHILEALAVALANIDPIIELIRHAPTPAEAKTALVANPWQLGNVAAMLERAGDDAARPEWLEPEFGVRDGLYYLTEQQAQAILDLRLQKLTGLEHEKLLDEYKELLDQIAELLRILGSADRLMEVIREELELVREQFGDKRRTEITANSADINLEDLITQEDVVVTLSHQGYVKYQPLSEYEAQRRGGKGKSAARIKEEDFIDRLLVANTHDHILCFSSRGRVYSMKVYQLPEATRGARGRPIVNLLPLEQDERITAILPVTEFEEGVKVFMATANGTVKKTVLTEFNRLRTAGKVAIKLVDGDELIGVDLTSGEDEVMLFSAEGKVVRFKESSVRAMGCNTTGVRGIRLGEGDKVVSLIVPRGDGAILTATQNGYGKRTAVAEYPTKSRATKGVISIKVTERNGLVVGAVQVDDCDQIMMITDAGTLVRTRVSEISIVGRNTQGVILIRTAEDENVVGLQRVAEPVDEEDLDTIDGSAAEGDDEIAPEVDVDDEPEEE
# Test protocol: Inhibition of Escherichia coli DNA gyrase A assessed as reduction in enzyme-mediated supercoiling of relaxed pBR322 DNA measured after 60 mins by electrophoresis method
pIC50: −log10 of the molar value.

{"columns": ["Smiles string", "pIC50"],
 "data": [
  ["COc1ccc2ncc(F)c([C@@H](O)CC[C@@H]3CCN(CCSc4cccs4)C[C@@H]3C(=O)O)c2c1", 4.96]
]}

* * *

# Target or test system: DNA topoisomerase 4 subunit A (Escherichia coli K-12)
# Sequence (P0AFI2 whole entry): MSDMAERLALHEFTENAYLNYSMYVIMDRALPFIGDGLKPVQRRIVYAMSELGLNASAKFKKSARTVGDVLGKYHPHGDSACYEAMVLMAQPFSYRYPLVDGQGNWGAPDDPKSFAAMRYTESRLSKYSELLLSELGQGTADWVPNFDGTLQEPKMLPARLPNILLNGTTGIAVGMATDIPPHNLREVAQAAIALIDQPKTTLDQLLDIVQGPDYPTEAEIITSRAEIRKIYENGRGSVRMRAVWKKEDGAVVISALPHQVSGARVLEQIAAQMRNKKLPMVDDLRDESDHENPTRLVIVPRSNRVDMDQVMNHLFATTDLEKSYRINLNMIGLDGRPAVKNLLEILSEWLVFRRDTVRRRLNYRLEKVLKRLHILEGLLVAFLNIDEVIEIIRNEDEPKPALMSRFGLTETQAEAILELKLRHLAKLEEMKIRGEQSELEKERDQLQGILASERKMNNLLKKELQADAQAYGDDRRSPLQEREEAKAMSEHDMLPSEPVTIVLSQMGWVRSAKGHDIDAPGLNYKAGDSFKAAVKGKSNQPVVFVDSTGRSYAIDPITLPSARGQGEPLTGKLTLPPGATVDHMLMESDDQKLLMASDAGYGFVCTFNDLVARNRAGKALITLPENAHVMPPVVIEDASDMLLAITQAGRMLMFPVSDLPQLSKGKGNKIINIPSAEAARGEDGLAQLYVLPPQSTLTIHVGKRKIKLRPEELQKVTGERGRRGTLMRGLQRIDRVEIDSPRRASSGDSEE
# Test protocol: Inhibition of Escherichia coli ATCC 25922 DNA topoisomerase 4 subunit ParC assessed as reduction in decatenation of kinetoplast DNA incubated for 30 mins by ethidium bromide staining based gel electrophoresis method
Measured property: IC50 (µM)

{"columns": ["Compound", "Measured property", "Unit string", "Numeric value"],
 "data": [
  ["O=c1nc(NCC(O)CN2CCN(c3nc(F)cc4ccc(F)cc34)CC2)c2cc(F)ccc2o1 (racemic)", "IC50", "µM", 0.1],
  ["O=c1cc(NCCCN2CCN(c3nccc4ccc(F)cc34)CC2)c2c(o1)CCOC2", "IC50", "µM", 59],
  ["COc1cc2ccccc2c(N2CCN(CCCNc3cc(=O)oc4ccccc34)CC2)n1", "IC50", "µM", 2.4],
  ["O=c1cc(NCCCN2CCN(c3nccc4ccccc34)CC2)c2ccccc2o1", "IC50", "µM", 10],
  ["O=c1cc(N[C@H]2C[C@@H](N3CCN(c4nccc5ccccc45)CC3)C2)c2ccccc2o1", "IC50", "µM", 0.9],
  ["O=c1cc(NC2CCN(CCCc3ccccc3)CC2)c2cc(Cl)ccc2o1", "IC50", "µM", 4.1],
  ["COc1ccc2cc(F)nc(N3CCN(CC(O)CNc4cc(=O)oc5ccc(F)cc45)CC3)c2c1 (racemic)", "IC50", "µM", 0.1],
  ["O=c1cc(NCCCN2CCN(c3nccc4ccc(F)cc34)CC2)c2ccccc2o1", "IC50", "µM", 1.7],
  ["N#Cc1cc2ccccc2c(N2CCN(CCCNc3cc(=O)oc4ccccc34)CC2)n1", "IC50", "µM", 3.9]
]}

* * *

# System: Escherichia coli
# Test protocol: Antibacterial activity against Escherichia coli ATCC 25922 after 16 to 24 hrs by broth microdilution method
# Assay type: functional
MIC strictly under 4 µg/mL means Criterion met; at 4 µg/mL or over means Criterion not met.

{"columns": ["Molecule", "Class name"],
 "data": [
  ["O=c1cc(NC[C@@H](O)CN2CCN(c3nccc4ccc(F)cc34)CC2)c2ccccc2o1", "Criterion met"],
  ["O=c1cc(NCCCN2CCN(c3nccc4ccccc34)CC2)c2cc(F)ccc2o1", "Criterion met"],
  ["O=C(NCCCN1CCN(c2nccc3ccccc23)CC1)c1ccccc1", "Criterion not met"],
  ["N#Cc1ccc2ccnc(N3CCN(CCCNc4cc(=O)oc5ccccc45)CC3)c2c1", "Criterion met"],
  ["O=c1cc(NCC(O)CN2CCN(c3nccc4ncccc34)CC2)c2cc(F)ccc2o1 (racemic)", "Criterion met"],
  ["O=c1cc(NCCCN2CCN(c3nccc4ccc(Cl)cc34)CC2)c2ccccc2o1", "Criterion met"],
  ["O=c1cc(CC(O)CCN2CCN(c3nccc4ccc(F)cc34)CC2)c2ccccc2o1 (racemic)", "Criterion not met"],
  ["O=c1cc(NCCCN2CCN(c3nccc4ccccc34)CC2)c2cc(Cl)ccc2o1", "Criterion met"]
]}
